# assayMethodText: Color change test (storage stability in solution)
# Format: physicochemical
# Set-up: key: −: no or very slight noticeable change (colorless or light yellow); +: slight; ++: moderate; +++: extreme
# conditionInfo: 50 mM in 50 mM potassium phosphate pH 7.0, 40° C., after 1 week
outcomeMeasure: Color change After 1 week

Here is how some molecules turned out for Color change After 1 week.
- molecule: "NCCCCC(NC(=O)C(Cc1cnc[nH]1)NC(=O)CNCCCOC1=C(O)C(C(O)CO)OC1=O)C(=O)O (stereo not drawn)"
  Color change After 1 week: "−"
- molecule: "O=C(CCC(=O)OCC(OC(=O)CCC(=O)NCC(=O)N1CCCC1C(=O)N1CC(O)CC1C(=O)O)C1OC(=O)C(O)=C1O)NCC(=O)N1CCCC1C(=O)N1CC(O)CC1C(=O)O (stereo not drawn)"
  Color change After 1 week: "−"
- molecule: "NCCCCC(NC(=O)C(Cc1cnc[nH]1)NC(=O)CNC(=O)CCC(=O)OCC(O)C1OC(=O)C(O)=C1O)C(=O)O (stereo not drawn)"
  Color change After 1 week: "−"
- molecule: "NCCCC[C@H](NC(=O)CNC(=O)CCC(=O)OC(CO)C1OC(=O)C(O)=C1O)C(=O)N[C@@H](Cc1c[nH]cn1)C(=O)O (stereo partly drawn)"
  Color change After 1 week: "−"
- molecule: "O=C(CCC(=O)OC(CO)C1OC(=O)C(O)=C1O)NCC(=O)N1CCCC1C(=O)N1CC(O)CC1C(=O)O (stereo not drawn)"
  Color change After 1 week: "−"

Lookup: Name the recorded Color change After 1 week for O=C1O[C@H]([C@@H](O)CO)C(O)=C1O .
Found: +

Lookup: Name the recorded Color change After 1 week for O=C1OC(C(O)CO)C(O)=C1OCCCNCC(=O)N1CCC[C@H]1C(=O)N1CC(O)C[C@H]1C(=O)O (stereo partly drawn) .
Found: −

Lookup: Name the recorded Color change After 1 week for O=C(CCC(=O)OCC(O)C1OC(=O)C(O)=C1O)NCC(=O)N1CCCC1C(=O)N1CC(O)CC1C(=O)O (stereo not drawn) .
Found: −

Lookup: Name the recorded Color change After 1 week for NCCCCC(NC(=O)C(Cc1cnc[nH]1)NC(=O)CNC(=O)CCC(=O)OC(CO)C1OC(=O)C(O)=C1O)C(=O)O (stereo not drawn) .
Found: −

###

# assayMethodText: Color change test (storage stability in solution)
# Format: physicochemical
# Set-up: key: −: no or very slight noticeable change (colorless or light yellow); +: slight; ++: moderate; +++: extreme
# conditionInfo: 50 mM in 50 mM potassium phosphate pH 7.0, 40° C., after 3 weeks
# Method: The compounds I to IV synthesized in Example 4 and vitamin C (Sigma Aldrich) were independently dissolved in 50 mM potassium phosphate of pH 7.0 at a concentration of 50 mM, and stored in an incubator at 40° C. for three weeks. Thereafter, the compounds and vitamin C were evaluated for color change according to the standard criteria, and the results are given in Table 2, below.
outcomeMeasure: Color change After 3 weeks

Here is how some compounds turned out for Color change After 3 weeks.
- compound: "NCCCCC(NC(=O)C(Cc1cnc[nH]1)NC(=O)CNCCCOC1=C(O)C(C(O)CO)OC1=O)C(=O)O (centres unmarked)"
  result: "++"
- compound: "O=C1OC(C(O)CO)C(O)=C1OCCCNCC(=O)N1CCC[C@H]1C(=O)N1CC(O)C[C@H]1C(=O)O (some centres unmarked)"
  result: "++"
- compound: "O=C(CCC(=O)OC(CO)C1OC(=O)C(O)=C1O)NCC(=O)N1CCCC1C(=O)N1CC(O)CC1C(=O)O (centres unmarked)"
  result: "+"
- compound: "O=C(CCC(=O)OCC(O)C1OC(=O)C(O)=C1O)NCC(=O)N1CCCC1C(=O)N1CC(O)CC1C(=O)O (centres unmarked)"
  result: "+"

Lookup: Name the recorded Color change After 3 weeks for NCCCCC(NC(=O)C(Cc1cnc[nH]1)NC(=O)CNC(=O)CCC(=O)OCC(O)C1OC(=O)C(O)=C1O)C(=O)O (centres unmarked) .
Found: +

Lookup: Name the recorded Color change After 3 weeks for NCCCC[C@H](NC(=O)CNC(=O)CCC(=O)OC(CO)C1OC(=O)C(O)=C1O)C(=O)N[C@@H](Cc1c[nH]cn1)C(=O)O (some centres unmarked) .
Found: +

Lookup: Name the recorded Color change After 3 weeks for NCCCCC(NC(=O)C(Cc1cnc[nH]1)NC(=O)CNC(=O)CCC(=O)OC(CO)C1OC(=O)C(O)=C1O)C(=O)O (centres unmarked) .
Found: +

Lookup: Name the recorded Color change After 3 weeks for O=C(CCC(=O)OCC(OC(=O)CCC(=O)NCC(=O)N1CCCC1C(=O)N1CC(O)CC1C(=O)O)C1OC(=O)C(O)=C1O)NCC(=O)N1CCCC1C(=O)N1CC(O)CC1C(=O)O (centres unmarked) .
Found: +
